Biological target: T1, Human BCMA (human, UniProt Q02223 1-54, limits assumed)
T1 construct: Soluble analyte in SPR; construct not described; also called huBCMA; B-cell maturation antigen
T1 sequence (looked up): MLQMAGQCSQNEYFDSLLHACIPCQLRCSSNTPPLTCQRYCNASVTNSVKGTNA
Experiment: SPR, IgG immobilised, 37 C
Protocol: All experiments were performed on a Bio-Rad Proteon XPR36 surface Plasmon resonance biosensor (Bio-Rad, Hercules, Calif.). […] The analysis temperature for the immobilization was 25° C. and the running buffer was HBS-T+(10 mM HEPES, 150 mM NaCl, 0.05% Tween-20, pH 7.4). […] The analysis temperature for the BCMA binding analysis was 37° C. or 25° C. in a running buffer of HBS-T+, supplemented with 1 mg/mL BSA. […] Immediately after the 50 nM BCMA injection, dissociation was monitored for 2 hours. […]
assay_endpoint: T ½ (min)
Express it in min; write the number only.

binder	assay_endpoint	quantity_unit	reading
L3.PY/L1.PH/H3.TAQ (antibody, V domains shown, IgG) VH: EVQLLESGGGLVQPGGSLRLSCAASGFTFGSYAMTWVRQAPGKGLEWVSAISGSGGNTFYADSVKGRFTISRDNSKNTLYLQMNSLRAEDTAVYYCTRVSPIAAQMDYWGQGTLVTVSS VL: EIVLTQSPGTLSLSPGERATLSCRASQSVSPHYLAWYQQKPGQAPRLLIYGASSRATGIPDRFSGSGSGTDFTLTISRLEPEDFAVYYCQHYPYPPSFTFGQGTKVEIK	T ½	min	5.43
L3.PY/L3.KF/H2.DY (antibody, V domains shown, IgG) VH: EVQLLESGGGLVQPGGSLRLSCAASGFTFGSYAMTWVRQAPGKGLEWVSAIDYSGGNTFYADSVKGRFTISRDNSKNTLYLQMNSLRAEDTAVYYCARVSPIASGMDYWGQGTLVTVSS VL: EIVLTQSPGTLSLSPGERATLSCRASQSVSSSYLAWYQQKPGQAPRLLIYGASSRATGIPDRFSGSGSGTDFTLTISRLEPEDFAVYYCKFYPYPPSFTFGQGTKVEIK	T ½	min	6.35

// next entry
Memo: L3.PY/L3.KY/H2.HA (antibody, V domains shown, IgG) VH: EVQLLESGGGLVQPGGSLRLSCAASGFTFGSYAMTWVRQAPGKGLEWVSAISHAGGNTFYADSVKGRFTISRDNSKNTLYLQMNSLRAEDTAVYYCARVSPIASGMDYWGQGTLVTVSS VL: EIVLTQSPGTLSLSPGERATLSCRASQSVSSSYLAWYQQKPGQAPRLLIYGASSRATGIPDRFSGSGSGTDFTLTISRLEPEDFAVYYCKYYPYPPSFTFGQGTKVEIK , reported T ½: 7.1

Every entry's value here was drawn from patent US20160297884A1.
